test system: Plasmodium berghei; assay: Screen against P. berghei liver stage (PbLuc), transformed with Luciferase, at 2uM; type: functional, HepG2; conditions: tested at 2 uM
Out of some 68,000 compounds screened, about 2,700 (4%) showed an effect of 50% or more. What follows is part of a selection rich in strong results, with near analogues and random picks from the rest.
experimental.readout: INHIBITION (%)

>>> observed("CN1CCN(C(=O)C2(S(C)(=O)=O)CCCC2)Cc2ccccc21")
-21.76
>>> observed("NC(=O)NC1(C(=O)N2CCc3c(Cl)cccc3C2)CCCCC1")
42.2
>>> observed("Cc1cc2c(N)nc(=O)n(CC(=O)Nc3cccc(Cl)c3)c2s1")
6.05
>>> observed("CCC(=O)Nc1ccc(C(C)NC(=O)COC)cc1 (stereo unspecified)")
-64.67
>>> observed("O=C(CCC(=O)N1CCCC1c1ccsc1)N1CCOCC1 (stereo unspecified)")
-26.92
>>> observed("CCN(CC)S(=O)(=O)N1C[C@H]2CC[C@@H](C1)N(Cc1cscn1)C2=O")
31.51
>>> observed("CNC(=O)[C@H]1C[C@@H]2CN(S(=O)(=O)c3cccc(C)c3)C[C@@H]2N1C")
27.95
>>> observed("CCn1nc(C)c2ncnc(N(C)C)c21")
-47.86
>>> observed("O=C(NCc1ccc(OCC2CC2)nc1)C1COc2ccccc2O1 (stereo unspecified)")
2.21
>>> observed("CN1CCN(C(=O)C2(NC(N)=O)CCCCC2)Cc2ccccc21")
50.61
>>> observed("Cc1cc(C)c(S(=O)(=O)Nc2cccc3c2OCCO3)cc1C(=O)O")
-49.16
